Give measured IC50 for each item. Keep answers brief.
tested-system: human full length Hsp90 (Homo sapiens, UniProt P07900)
Construct: amino acid residues 1 to 732 of human Hsp90 (GenBank: BC121062.2); made in house; host or cells: E. coli BL21DE3 (pET15b)
measurement-protocol: Fluorescence polarization Hsp90 competitive binding assay (GM-FITC displacement)
settings: Table 1; 50 nM Hsp90, 9 nM GM-FITC; read-out: Biochemical Potency IC50

In the examples that follow, each entry is paired with its recorded IC50.
Look up IC50 for this molecule: `COc1cc(NCc2cc(OC)c(OC)c(OC)c2)nc(N)n1` > 250 µM

Same for `COc1c(C)cnc(CN(C(C)=O)c2cc(Cl)nc(N)n2)c1C` ≥ 32 µM

Report IC50 for every entry below.
1. COc1c(C)cnc(CN(c2cc(Cl)nc(N)n2)C(C)C)c1C
2. Cc1cnc(CN(C)c2cc(Cl)nc(N)n2)c(C)c1Br

["≥ 32 µM", "≥ 32 µM"]
